The entries below are paired with their reported pKd.
molecular target: RAGE tail (Homo sapiens (Human), UniProt Q15109)
Sequence (Q15109 364-404): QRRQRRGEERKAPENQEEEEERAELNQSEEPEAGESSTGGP
pKd (log units): -log10 of the concentration in mol/L.

These recorded examples may help you get a feel for the data.
INPUT: Short answer please: pKd, RAGE tail (Homo sapiens (Human), UniProt Q15109), entry COC(=O)c1cc(OC)c(OC)cc1NC(=O)C1Oc2ccccc2OC1C (stereo not drawn) [CB-8]
OUTPUT: 8.70

INPUT: State its pKd on RAGE tail (Homo sapiens (Human), UniProt Q15109): COc1cc(SC)ccc1C(=O)Nc1cccc(C)n1 [CB-1]
OUTPUT: 8.40

INPUT: Give pKd (RAGE tail (Homo sapiens (Human), UniProt Q15109)) of the following compound: Cc1nccn1CC(O)Cn1c2ccccc2c2ccccc21 (stereo not drawn) [CD-29]
OUTPUT: 7.11

New cases:
INPUT: Record Cc1ccc(S(=O)(=O)N(C)C(F)F)cc1 [CB-9] : what is its pKd with RAGE tail (Homo sapiens (Human), UniProt Q15109)?
OUTPUT: 4.76

INPUT: Any idea what pKd came out for OC(Cn1ccc2ccccc21)Cn1cnc2ccccc21 (stereo not drawn) [CB-4] on RAGE tail (Homo sapiens (Human), UniProt Q15109)?
OUTPUT: 8.70
